The measurements presented in this section are drawn from patent US20250179047A1.

# Target system: BCLXL WT (Homo sapiens (Human))
# Sequence (Q07817 other isoform, or with tags, fused parts or gaps): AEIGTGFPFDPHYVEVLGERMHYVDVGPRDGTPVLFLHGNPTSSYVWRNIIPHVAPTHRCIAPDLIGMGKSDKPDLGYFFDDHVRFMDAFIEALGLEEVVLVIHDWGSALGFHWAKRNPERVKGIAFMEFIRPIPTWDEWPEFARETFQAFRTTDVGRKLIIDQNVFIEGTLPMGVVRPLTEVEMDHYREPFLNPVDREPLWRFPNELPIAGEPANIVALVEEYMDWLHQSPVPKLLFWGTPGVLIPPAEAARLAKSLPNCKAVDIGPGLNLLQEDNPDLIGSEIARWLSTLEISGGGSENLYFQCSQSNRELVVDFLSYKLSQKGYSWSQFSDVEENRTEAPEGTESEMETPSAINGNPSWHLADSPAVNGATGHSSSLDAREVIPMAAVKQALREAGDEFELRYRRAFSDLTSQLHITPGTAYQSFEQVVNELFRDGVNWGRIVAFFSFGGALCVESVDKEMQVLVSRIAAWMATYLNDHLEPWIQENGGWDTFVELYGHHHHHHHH
# Assay procedure: TR-FRET competitive binding assay, BCLXL WT
# Test parameters: ratio Ki BCLxL / Ki BCL2 WT
Quantity name: TR_FRET EKI BCLxL/WT selectivty ratio

Solved entries (count: 2):
Cc1c(N(C(=O)c2cc(-c3cc4c(cc3C(=O)N3Cc5ccccc5C[C@H]3CN3CCCCC3)CN(C(=O)Cc3ccc(OCC(C)N5CCOCC5)cc3)CC4)n(C)c2C)c2ccc(O)cc2)cc(C#N)n1C (single isomer, unassigned) [Example 127] :: 76.6
Cc1cc(OCCN2CCOCC2)c(F)cc1CC(=O)N1CCc2cc(-c3cc(C(=O)N(c4ccc(O)cc4)c4cc(C#N)n(C)c4C)c(C)n3C)c(C(=O)N3Cc4ccccc4C[C@H]3CN3CCCCC3)cc2C1 :: 24.6

Kindly note the recorded TR_FRET EKI BCLxL/WT selectivty ratio for Cc1c(N(C(=O)c2cc(-c3cc4c(cc3C(=O)N3Cc5ccccc5C[C@H]3CN3CCCCC3)CN(C(=O)Cc3ccc(OCCC5CCOCC5)cc3)CC4)n(C)c2C)c2ccc(O)cc2)cc(C#N)n1C , which is 47.6

Kindly note the recorded TR_FRET EKI BCLxL/WT selectivty ratio for Cc1c(N(C(=O)c2cc(-c3cc4c(cc3C(=O)N3Cc5ccccc5C[C@H]3CN3CCCCC3)CN(C(=O)Cc3ccc(OCCN5CCO[C@H](C)C5)cc3)CC4)n(C)c2C)c2ccc(O)cc2)cc(C#N)n1C , which is 57.4

Kindly note the recorded TR_FRET EKI BCLxL/WT selectivty ratio for Cc1c(N(C(=O)c2cc(-c3cc4c(cc3C(=O)N3Cc5ccccc5C[C@H]3C)CN(C(=O)Cc3ccc(Oc5ccccc5)cc3)CC4)n(C)c2C)c2ccc(O)cc2)cc(C#N)n1C , which is 14.2

Kindly note the recorded TR_FRET EKI BCLxL/WT selectivty ratio for Cc1c(C(=O)N(c2ccc(O)cc2)c2cc(C#N)n(C(F)F)c2C)cc(-c2cc3c(cc2C(=O)N2Cc4ccccc4C[C@H]2CN2CCCC2)CN(C(=O)Cc2ccc(OCCN4CCOCC4)cc2F)CC3)n1C , which is 102.5
